Reference source: ChEMBL document CHEMBL5247653

Biological target: C-X-C chemokine receptor type 3 (Homo sapiens)
Sequence (P49682 whole entry): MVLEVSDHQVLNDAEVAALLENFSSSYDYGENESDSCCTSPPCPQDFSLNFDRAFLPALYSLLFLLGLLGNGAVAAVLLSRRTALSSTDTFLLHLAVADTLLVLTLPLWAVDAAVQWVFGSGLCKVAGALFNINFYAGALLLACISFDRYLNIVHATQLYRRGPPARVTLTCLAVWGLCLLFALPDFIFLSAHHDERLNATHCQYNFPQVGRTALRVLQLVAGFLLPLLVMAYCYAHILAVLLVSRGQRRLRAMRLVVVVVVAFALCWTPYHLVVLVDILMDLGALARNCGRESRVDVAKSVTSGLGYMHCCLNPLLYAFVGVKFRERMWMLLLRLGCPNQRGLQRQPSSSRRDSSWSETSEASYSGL
Test: Antagonist activity at CXCR3 (unknown origin) in human T cells in venous blood assessed as receptor internalization incubated for 30 mins in presence of CXCL10 by flow cytometric analysis
Assay type: cell-based, T cell
Measured parameter: IC50 (nM)

Here's what some known entries look like.
1. C[C@@H]1CN(c2sc(C(F)(F)F)nc2-c2cnc(C(F)(F)F)nc2)CCN1C(=O)Cn1cnc(C(F)(F)F)n1 : 191
2. CCc1ncn(CC(=O)N2CCN(c3sc(C(F)(F)F)nc3-c3cnc(C(F)(F)F)nc3)C[C@H]2CO)n1 : 208
3. CCc1nc(C)n(CC(=O)N2CCN(c3sc(C(F)(F)F)nc3-c3cnc(C(F)(F)F)nc3)C[C@H]2C)n1 : 483
4. CC(C)c1ncn(CC(=O)N2CCN(c3sc(C(F)(F)F)nc3-c3cnc(C(F)(F)F)nc3)C[C@H]2CO)n1 : 225

P: Cc1ccn(CC(=O)N2CCN(c3sc(C(F)(F)F)nc3-c3cnc(C(F)(F)F)nc3)C[C@H]2CCO)n1
Q: CC(C)c1ncn(CC(=O)N2CCN(c3sc(C(F)(F)F)nc3-c3cnc(C(F)(F)F)nc3)C[C@@H]2CCO)n1
R: CCc1ncnn1CC(=O)N1CCN(c2sc(C(F)(F)F)nc2-c2cnc(C(F)(F)F)nc2)C[C@H]1C
Put the entries in order of IC50, starting with the largest number. In your reply, arrange the labels in the requested order. R, Q, P
(R: 1190 nM, Q: 165 nM, P: 30.2 nM)

1: Cc1ccn(CC(=O)N2CCN(c3sc(C(F)(F)F)nc3-c3cnc(C(F)(F)F)nc3)C[C@H]2CO)n1
2: C[C@@H]1CN(c2sc(C(F)(F)F)nc2-c2cnc(C(F)(F)F)nc2)CCN1C(=O)Cn1cnc(C#N)n1
3: CCc1nc(C)nn1CC(=O)N1CCN(c2sc(C(F)(F)F)nc2-c2cnc(C(F)(F)F)nc2)C[C@H]1C
4: Cc1ncn(CC(=O)N2CCN(c3sc(C(F)(F)F)nc3-c3cnc(C(F)(F)F)nc3)C[C@H]2CO)n1
rank_up(items): orders items by reported IC50 in ascending numerical order. In your reply, arrange the labels in the requested order. 1, 4, 3, 2
(1: 53.2 nM, 4: 167 nM, 3: 680 nM, 2: 1320 nM)

I: Cc1ccn(CC(=O)N2CCN(c3sc(C(F)(F)F)nc3-c3cnc(C(F)(F)F)nc3)C[C@@H]2CO)n1
II: Cc1ncnn1CC(=O)N1CCN(c2sc(C(F)(F)F)nc2-c2cnc(C(F)(F)F)nc2)C[C@H]1C
Endpoint returns whichever of I and II has the numerically higher IC50. Your choice should be expressed through its label. II
(II: 477 nM, I: 74.6 nM)

I: CC(C)c1ncn(CC(=O)N2CCN(c3sc(C(F)(F)F)nc3-c3cnc(C(F)(F)F)nc3)C[C@H]2CCO)n1
II: CCc1ccn(CC(=O)N2CCN(c3sc(C(F)(F)F)nc3-c3cnc(C(F)(F)F)nc3)C[C@H]2CCO)n1
Endpoint returns whichever of I and II has the numerically higher IC50. Your choice should be expressed through its label. I
(I: 63 nM, II: 24.9 nM)

A: O=C(Cn1cnc(C2CC2)n1)N1CCN(c2sc(C(F)(F)F)nc2-c2cnc(C(F)(F)F)nc2)C[C@H]1CCO
B: CC(O)c1ncn(CC(=O)N2CCN(c3sc(C(F)(F)F)nc3-c3cnc(C(F)(F)F)nc3)C[C@H]2C)n1 (some centres not stated)
Endpoint returns whichever of A and B has the numerically higher IC50. Your choice should be expressed through its label. B

I: O=C(Cn1cnc(C2CC2)n1)N1CCN(c2sc(C(F)(F)F)nc2-c2cnc(C(F)(F)F)nc2)C[C@H]1CO
II: CCc1ncn(CC(=O)N2CCN(c3sc(C(F)(F)F)nc3-c3cnc(C(F)(F)F)nc3)C[C@@H]2CO)n1
Endpoint returns whichever of I and II has the numerically higher IC50. Your choice should be expressed through its label. I
(I: 140 nM, II: 82 nM)

A: C[C@@H]1CN(c2sc(C(F)(F)F)nc2-c2cnc(C(F)(F)F)nc2)CCN1C(=O)Cn1cnc(CO)n1
B: CCc1ncn(CC(=O)N2CCN(c3sc(C(F)(F)F)nc3-c3cnc(C(F)(F)F)nc3)C[C@H]2C)n1
Endpoint returns whichever of A and B has the numerically higher IC50. Your choice should be expressed through its label. A
(A: 510 nM, B: 117 nM)

A: Cc1ccn(CC(=O)N2CCN(c3sc(C(F)(F)F)nc3-c3cnc(C(F)(F)F)nc3)C[C@H]2C)n1
B: CCc1nncn1CC(=O)N1CCN(c2sc(C(F)(F)F)nc2-c2cnc(C(F)(F)F)nc2)C[C@H]1C
// compare measured IC50 between A and B ; output the lower one Your choice should be expressed through its label. A
